Test system: OVCAR-3 ovarian
METHOD: NCI-60 one-dose screen, 48 h
SETUP CONDITIONS: 10 µM unless noted
This is part of a sample that, as a whole, favours compounds with a hit. Of some 83,000 tested, about 20% had one in any assay. The source made the active and inactive calls. Rule for the calls: active = growth percent below 10; inactive = the rest.
Classes used: Yes for active, No for inactive

molecule=Cc1ccc2oc(=O)cc(-c3nc4ccc([N+](=O)[O-])cc4[nH]3)c2c1 cat=No
molecule=COc1ccc(/C(=C\c2cc(OC)c(OC)c(OC)c2)C(=O)N2CCCNCC2)cc1 cat=No
molecule="CCCCNCC(O)c1cc(-c2ccc(C(F)(F)F)cc2)nc(-c2ccc(C(F)(F)F)cc2)c1 (stereo not given)" cat=Yes
molecule=CN1CCN(c2ccc(N3Cc4ccccc4OC4=C3C(=O)c3c(O)ccc(O)c3C4=O)cn2)CC1 cat=Yes
molecule=CCCCCCCCCCCCCCCc1cc(O)ccc1[N+](=O)[O-] cat=No

###

System: PC-3 prostate
METHOD: NCI-60 one-dose screen, 48 h (100 = growth as untreated, 0 = no growth, -100 = all killed)
SETUP CONDITIONS: 10 µM unless noted
About 83,000 compounds went through this panel and 20% of them were active in at least one assay; those are over-represented in the sample as a whole.
API: label(entry) gives rule met if the entry's growth is strictly smaller than 60%; on equality or larger values it gives rule not met.

molecule=COc1cccc2nc(Nc3cccc(NC(=O)c4ccc(N5CCN(C)CC5)c(C(F)(F)F)c4)c3)ccc12 tested_system="PC-3 prostate" cat="rule met"
molecule=N#Cc1ccc(NC(=O)Nc2nc3ccc(OC(F)(F)F)cc3s2)cc1 tested_system="PC-3 prostate" cat="rule met"
molecule=COc1cc2c(cc1OC)C(=O)OC2 tested_system="PC-3 prostate" cat="rule not met"
molecule=CN(C)c1ccc(N2Cc3ccccc3OC3=C2C(=O)c2c(O)ccc(O)c2C3=O)cn1 tested_system="PC-3 prostate" cat="rule met"
molecule="CCc1ccc2c(c1)N(CCO)C1=C(C(=O)OC1)C2c1cccc(Br)c1 (stereo unspecified)" tested_system="PC-3 prostate" cat="rule met"
molecule=Cc1cc(C)cc(CCCCCCCCCCCCCCCCCC(=O)O)c1 tested_system="PC-3 prostate" cat="rule not met"
molecule="Cc1ccccc1N1C(c2ccccc2)=NNC12C=CC(=O)c1c(O)cccc12 (stereo unspecified)" tested_system="PC-3 prostate" cat="rule met"
molecule=Clc1ccc2c(c1)-c1ccccc1C1=NCCN12 tested_system="PC-3 prostate" cat="rule met"
molecule="CC1=C(C(=O)Nc2ccc(F)cc2)C(c2ccccc2)C2=C(CC(C)(C)CC2=O)N1 (stereo unspecified)" tested_system="PC-3 prostate" cat="rule met"
molecule=Cc1ccc(-c2nc3ccccc3c(=O)n2/N=C/c2cccc3ccccc23)cc1 tested_system="PC-3 prostate" cat="rule not met"
molecule=COc1ccc(C2=Nn3c(nnc3-c3ccc(Cl)cc3N)SC2)cc1 tested_system="PC-3 prostate" cat="rule not met"

###

Tested on: IGROV1 ovarian
METHOD: NCI-60 one-dose screen, 48 h (100 = growth as untreated, 0 = no growth, -100 = all killed)
SETUP CONDITIONS: 10 µM unless noted
The panel holds about 83,000 compounds, 20% with a hit somewhere; the sample as a whole holds those more often.
ENDPOINT: growth (%)

compound=CC(=O)[C@@]1(O)[C@H](C)C[C@H]2[C@@H]3C=C(C)C4=Cc5c(cnn5-c5ccccc5)C[C@]4(C)[C@H]3[C@@H](O)C[C@@]21C endpoint=growth result=-16.8
compound=C=CCN(CCOC(=O)c1ccc([N+](=O)[O-])cc1)CCOC(=O)c1ccc([N+](=O)[O-])cc1 endpoint=growth result=88.1
compound=COc1cccc(NC(=O)c2c(-c3ccccc3)c(-c3ccccc3)n[nH]c2=O)c1 endpoint=growth result=105
compound=CCCc1cc2c(cc1CN(Cc1cc3c(cc1CCC)OCO3)C(=N)OCC)OCO2 endpoint=growth result=63.3
compound=Brc1cccc(-n2ncc3c(Nc4ccc(-c5nnc(-c6ccccc6)o5)cc4)ncnc32)c1 endpoint=growth result=112
compound=Clc1ccc(-c2nc(Br)cn3ccnc23)cc1 endpoint=growth result=74.3
compound=CN(C)CCOc1nc2c3ccncc3cc(-c3cccc(Cl)c3)c2c2cnccc12 endpoint=growth result=28.9
compound=COCCOCCOCc1n(Cc2ccc3ccccc3n2)c2ccccc2[n+]1Cc1ccc2ccccc2c1 endpoint=growth result=-9.44
compound=COc1ccc(OC)c(Nc2nc(-c3c(C)nc4sccn34)cs2)c1 endpoint=growth result=90.8
compound=COc1cccc(CC(C)=C(c2ccc(OCCCN(C)C)cc2)c2ccc(OCCCN(C)C)cc2)c1 endpoint=growth result=-82.6
compound=COc1ccc(NC(=O)/C=C/c2ccc(Cl)c(Cl)c2)cn1 endpoint=growth result=67.8
compound="OC(c1cc(-c2ccc(C(F)(F)F)cc2)nc(-c2ccc(C(F)(F)F)cc2)c1)C1CCCCN1 (stereo unspecified)" endpoint=growth result=-65.2
compound=CCNC(=S)N(Cc1ccccc1)Cc1ccccc1 endpoint=growth result=113
compound=O=C(NO)c1ccc(NCc2csc3ccccc23)cc1 endpoint=growth result=55.6
compound=NC(=Nc1ccccc1)SCCCSC(N)=Nc1ccccc1 endpoint=growth result=80.1
compound=CCCc1n(Cc2ccc3ccccc3n2)cc[n+]1Cc1ccc2ccccc2n1 endpoint=growth result=30.6
compound=COc1ccc(/C(=C\c2cc(OC)c(OC)c(OC)c2)C(=O)N2CCN(c3ccccc3)CC2)cc1O endpoint=growth result=102
compound=O=C(Nc1cnc(C(F)(F)F)cn1)c1cc(Cl)ccc1O endpoint=growth result=23.8
compound=COc1cc(/C=C/c2ccc3c(Br)cc(Br)c(O)c3n2)ccc1O endpoint=growth result=-44.8
compound=CN(C)c1ccc(N2Cc3ccccc3OC3=C2C(=O)c2c(O)ccc(O)c2C3=O)cn1 endpoint=growth result=-63.3
compound=CCOC(=O)c1ccc(N(CCC(=O)O)C(C)=O)cc1 endpoint=growth result=103
compound=O=C(/C=C/c1cc([N+](=O)[O-])ccc1Cl)c1ccccc1 endpoint=growth result=70.5
compound=CC(C)c1ccc(Cn2ccc3c4c(N)nc(NC5CC5)nc4ccc32)cc1 endpoint=growth result=-87.4
compound="CCC1CCc2nc3sc(C(=O)Nc4cccc(F)c4)c(N)c3cc2C1 (stereo unspecified)" endpoint=growth result=89.2
compound=O=C(CCCCCCc1nc2ccc(Br)cc2[nH]1)NO endpoint=growth result=-9.43
compound=CCN(C)CCCOc1ccc(/C(=C(\C)Cc2cccc(OC)c2)c2ccc(OC(C)=O)cc2)cc1 endpoint=growth result=102
compound="Oc1c(C(c2ccc(F)cc2)N2CCCCC2)ccc2cncnc12 (stereo unspecified)" endpoint=growth result=9.64
compound=COc1c(C(=O)/C=C/c2ccc(C)o2)c(O)cc2occc12 endpoint=growth result=69.3
compound=CCOC(=O)c1c(NC(=O)c2ccccc2)sc2c(O)c(CN(CC)CC)ccc12 endpoint=growth result=22.4
compound=O=C1/C(=C\c2cccn2Cc2ccc(F)cc2)c2ccccc2N1c1c(Cl)cccc1Cl endpoint=growth result=55.8
compound=Cc1nc2ccc(Nc3nc(NCCN4CCOCC4)nc(Nc4ccc(F)cc4)n3)cc2n1Cc1ccccc1 endpoint=growth result=69
compound=Cc1cc(C)c([O-])c(CN(C)CCN(C)Cc2cc(C)cc(C)c2[O-])c1.O=C([O-])c1cccc(C(=O)[O-])n1.[Ti+4] endpoint=growth result=6.22
compound=COc1ccc(/C(=C\c2cc(OC)c(OC)c(OC)c2)C(=O)Nc2nc3ccc(Cl)cc3s2)cc1 endpoint=growth result=106
compound=CC(=O)c1c(C)nc(-c2cc(C)cc(Cl)c2)nc1-c1cccc(Oc2ccccc2)c1 endpoint=growth result=77.7
compound=COc1ccc2[nH]c(C(=O)OCc3ccc4cccc(O)c4n3)cc2c1 endpoint=growth result=-91.2
compound="COc1ccc(/C=C2\\CCCC3=C2N=C2SC(C)=NN2C3c2ccc(OC)c(OC)c2)cc1OC (stereo unspecified)" endpoint=growth result=30.4
compound=COc1c(-c2cc(-c3ccc(C)o3)[nH]c(=O)n2)c(O)cc2occc12 endpoint=growth result=58.4
compound=O=[N+]([O-])c1cccc(N=C(Nc2cccc([N+](=O)[O-])c2)c2ccccc2)c1 endpoint=growth result=84.4
compound=COCCCNCC(=O)Nc1c(C)cccc1C endpoint=growth result=140
compound=COC(=O)/C=C/c1cc(OC(C)=O)c2c(c1)[C@@H](C(=O)OC)[C@H](c1ccc(OC(C)=O)c(OC(C)=O)c1)O2 endpoint=growth result=12.2
compound=COc1ccc(/C(=C\c2cc(OC)c(OC)c(OC)c2)C(=O)N2CCCNCC2)cc1 endpoint=growth result=113
